The measurements presented in this section are drawn from patent US20240343803A1.

Target: T1, cynomolgus monkey PVRIG (Novoprotein, Cat NO. C09B) (cynomolgus monkey, UniProt A0A2K5WVV8 41-171)
T1 construct: also called cynomolgus monkey PVRIG protein
T1 sequence: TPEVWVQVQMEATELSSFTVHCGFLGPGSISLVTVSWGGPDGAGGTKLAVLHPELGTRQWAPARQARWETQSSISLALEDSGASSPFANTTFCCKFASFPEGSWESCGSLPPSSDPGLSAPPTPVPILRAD
Experiment: ELISA, antigen coated
Labelling: % relative activity parental antibody/tested antibody reported below 90% becomes Condition met; at or above becomes Condition not met.

• PVRIG-A105-H1 (Fc fusion, humanized variant of PVRIG-A105; also called A105.VH1; not shown: constant part not restated for the humanized forms; parents are VHH-hinge-CH2-CH3 of human IgG1; detected by anti-human) EVQLVESGGGLVQPGGSLRLSCAASGRTFDRHTMSWFRQAPGKEREFVATASRIPGDTYYVDSVKGRFTISRDNAKNSLYLQMNSLRAEDTAVYYCAATSAYCSEVDCYEKGSWYDNWGQGTMVTVSS = Condition not met

Ask: Does this binder meet the criterion % relative activity parental antibody/tested antibody < 90%? PVRIG-A50-H1c (Fc fusion, humanized variant of PVRIG-A50; also called A50.VH1c; not shown: constant part not restated for the humanized forms; parents are VHH-hinge-CH2-CH3 of human IgG1; detected by anti-human) EVQLVESGGGLVQPGGSLRLSCAASGFTFSYYDMSWVRQAPGKGLEWVSTINSDGGRTSYVDSVKGRFTISRDNSKNTLYLQMNSLRAEDTAVYYCVEGDPHNFGLENLALRDFGSWGQGTMVTVSS
Reply: Condition met

Ask: Does this binder meet the criterion % relative activity parental antibody/tested antibody < 90%? PVRIG-A50-H2a (Fc fusion, humanized variant of PVRIG-A50; also called A50.VH2a; not shown: constant part not restated for the humanized forms; parents are VHH-hinge-CH2-CH3 of human IgG1; detected by anti-human) EVQLVESGGGLVQPGGSLRLSCAASGFTFSYYDMSWVRQAPGKGLEWVSTINSNAGRTSYVDSVKGRFTISRDNTKNTLYLQMNSLRAEDTAVYYCVEGDPHNFGLESLSLRDFGSWGQGTMVTVSS
Reply: Condition met

Ask: Does this binder meet the criterion % relative activity parental antibody/tested antibody < 90%? PVRIG-A118-H7 (Fc fusion, humanized variant of PVRIG-A118; also called A118.VH7; not shown: constant part not restated for the humanized forms; parents are VHH-hinge-CH2-CH3 of human IgG1; detected by anti-human) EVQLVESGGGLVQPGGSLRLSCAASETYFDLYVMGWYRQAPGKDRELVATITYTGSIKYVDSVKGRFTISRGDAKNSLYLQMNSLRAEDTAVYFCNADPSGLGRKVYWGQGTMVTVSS
Reply: Condition met

Ask: Does this binder meet the criterion % relative activity parental antibody/tested antibody < 90%? PVRIG-A118-H5 (Fc fusion, humanized variant of PVRIG-A118; also called A118.VH5; not shown: constant part not restated for the humanized forms; parents are VHH-hinge-CH2-CH3 of human IgG1; detected by anti-human) EVQLVESGGGLVQPGGSLRLSCAASETYFDLYVMGWYRQAPGKDRELVATITYTGSIKYVDSVKGRFTISRGDAKNSVYLQMNSLRAEDTAVYYCNADPSGLGRKVYWGQGTMVTVSS
Reply: Condition met
